Biological target: UniProt P41148
Sequence (P41148 whole entry): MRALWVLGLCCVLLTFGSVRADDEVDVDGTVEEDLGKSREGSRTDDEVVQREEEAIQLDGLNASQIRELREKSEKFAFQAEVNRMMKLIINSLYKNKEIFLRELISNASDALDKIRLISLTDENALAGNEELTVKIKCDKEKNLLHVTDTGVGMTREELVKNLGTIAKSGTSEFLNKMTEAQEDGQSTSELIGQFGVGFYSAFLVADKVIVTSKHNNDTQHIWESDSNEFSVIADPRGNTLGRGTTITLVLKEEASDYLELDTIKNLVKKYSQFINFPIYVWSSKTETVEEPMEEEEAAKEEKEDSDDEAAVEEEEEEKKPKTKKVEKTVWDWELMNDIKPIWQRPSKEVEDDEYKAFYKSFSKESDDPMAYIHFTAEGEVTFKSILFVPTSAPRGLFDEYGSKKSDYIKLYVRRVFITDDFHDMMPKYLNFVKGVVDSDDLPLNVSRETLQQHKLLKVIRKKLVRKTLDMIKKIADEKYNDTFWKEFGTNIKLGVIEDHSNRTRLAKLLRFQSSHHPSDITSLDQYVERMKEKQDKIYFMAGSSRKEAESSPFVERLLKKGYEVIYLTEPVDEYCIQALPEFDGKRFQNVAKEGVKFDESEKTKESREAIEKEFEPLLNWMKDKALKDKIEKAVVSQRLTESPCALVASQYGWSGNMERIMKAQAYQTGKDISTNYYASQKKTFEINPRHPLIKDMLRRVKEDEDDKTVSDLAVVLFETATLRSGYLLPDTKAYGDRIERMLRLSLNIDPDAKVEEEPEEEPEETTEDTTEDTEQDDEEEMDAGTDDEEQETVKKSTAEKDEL
Experiment: Displacement of Cy3B-GM from recombinant Grp94 (unknown origin) after 24 hrs by fluorescence polarization assay
MEASURED ATTRIBUTE: IC50 (nM)

P = CC#CCn1c(Sc2cc(Cl)cc(Cl)c2)nc2c(N)ncnc21
Q = C#CCCCn1c(Oc2ccc(Cl)cc2Cl)nc2c(N)ncnc21
R = C#CCCCn1c(C(=O)c2ccc(Cl)cc2Cl)nc2c(N)ncnc21
Challenge: Place the items in sequence of falling IC50. Rank the items, then write their labels in that order.
Response given: P, Q, R
(P: 5100 nM, Q: 500 nM, R: 340 nM)
